pIC50: −log10 of the molar value.
The following compounds were reported with pIC50 values on Glycogen synthase kinase-3 alpha (Homo sapiens, UniProt P49840) in different studies.
Sequence (P49840 whole entry): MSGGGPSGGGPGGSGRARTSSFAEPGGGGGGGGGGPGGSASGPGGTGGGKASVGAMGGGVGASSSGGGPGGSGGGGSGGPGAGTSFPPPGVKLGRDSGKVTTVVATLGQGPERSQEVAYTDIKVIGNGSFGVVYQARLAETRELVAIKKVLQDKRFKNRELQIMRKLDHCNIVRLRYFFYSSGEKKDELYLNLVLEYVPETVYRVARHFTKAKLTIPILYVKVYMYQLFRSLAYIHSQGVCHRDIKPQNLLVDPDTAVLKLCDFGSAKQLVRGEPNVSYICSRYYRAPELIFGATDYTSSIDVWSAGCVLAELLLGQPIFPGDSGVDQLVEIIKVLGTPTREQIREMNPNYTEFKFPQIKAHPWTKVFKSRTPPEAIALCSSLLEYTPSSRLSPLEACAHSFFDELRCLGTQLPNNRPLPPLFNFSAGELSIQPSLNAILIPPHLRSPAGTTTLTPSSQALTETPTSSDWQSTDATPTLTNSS
MEASUREMENT TYPE: pIC50

Illustrative cases are given below, each with its answer.
* O=C(O)CCc1ccc(Nc2ncc([N+](=O)[O-])c(NC34CC5CC(CC(C5)C3)C4)n2)cc1 | 7.42
* Nc1nc(NCCNc2ncc(-c3ncc[nH]3)c(-c3ccc(Cl)cc3Cl)n2)ccc1[N+](=O)[O-] | 9.19

P. O=C(O)COc1ccc(Nc2ncc3nnn(C45CC6CC(CC(O)(C6)C4)C5)c3n2)cc1
Q. COc1ccc(CNC(=O)Nc2cc(-c3nnn[nH]3)ccn2)cc1
R. O=C(OC[C@H]1O[C@@H](n2cnc3c(=O)[nH]cnc32)[C@H](O)[C@@H]1O)c1ccc[nH]1
Hi! Can you put these in order of pIC50, lowest number first? Your task in answering is to list the labels in the requested order.
R, Q, P

A. OC12CC3CC(C1)CC(Nc1nc(N[C@H]4CC[C@H](O)CC4)ncc1Br)(C3)C2
B. COC(=N)c1nc2ccc3ncnc(Nc4ccc(Cl)cc4Cl)c3c2s1
Identify the item whose pIC50 is the smaller number: A or B Give the chosen item's label as your response.
A
(A: 7.04, B: 8.13)

====

Let's look at some IC50 data for UniProtKB P49840 that I collected from the literature.
MEASUREMENT TYPE: IC50 (nM)

Completed entries (count: 4):
• O=C1OC(Nc2ncc3nnn(-c4ccccc4)c3n2)c2ccccc21 (stereo not given) = 23
• COc1ccc(CNC(=O)Nc2nc3ccc(-c4nnn[nH]4)cc3s2)cc1 = 130
• O=C1CN(c2ccccc2)c2nc(Nc3ccc(C(=O)O)cc3)ncc2N1 = 6700
• CN1CC=C(c2c(O)cc(O)c3c(=O)cc(-c4ccc(Sc5nc6ccccc6n5C)cc4Cl)oc23)CC1 = 70

P. O=C(O)c1ccc(Nc2ncc3c(Cl)nn(-c4ccccc4)c3n2)cc1
Q. OC12CC3CC(C1)CC(Nc1nc(N[C@H]4CC[C@H](O)CC4)ncc1C(F)(F)F)(C3)C2
R. FC(F)(F)CNc1nc(Nc2ccc3cn[nH]c3c2)nc2ccoc12
S. O=[N+]([O-])c1cnc(N[C@H]2CC[C@H](O)CC2)nc1Nc1ccccc1
Task field, ranking: reported IC50, descending order. Answer with the labels in sequence, matching the requested order.
R, P, S, Q
(R: 9360 nM, P: 350 nM, S: 172 nM, Q: 61 nM)

====

Dear all, I have gathered published IC50 values for Glycogen synthase kinase-3 alpha (Homo sapiens, UniProt P49840); the list follows.
MEASUREMENT TYPE: IC50 (nM)

The following molecules have reported results that may help.
- O=C(O)c1ccc(Nc2ncc(-c3ccncc3)c(Nc3ccccc3)n2)cc1: 1870
- O=c1[nH]c2ncc(-c3ccc4[nH]cnc4c3)nc2n1CC1CCCCC1: 990

a. COC(=N)c1nc2ccc3ncnc(Nc4ccc(OC)cc4F)c3c2s1
b. COc1ccc(CNC(=O)Nc2cc(C#N)ccn2)cc1
Given a and b , report the one with the higher recorded IC50. Lab log: write the label of the selected item as the result.
b
(b: 1120 nM, a: 9.11 nM)
